Test: Binding affinity to immobilized HIV1 YU2 gp120 by surface plasmon resonance method
Set-up: species or system Human immunodeficiency virus 1
Property: pKd; scope: individual compounds
Give only the number. pKd is defined as minus log10 of concentration in molar units.

Answered cases to consult:
1) CC[C@H](C)[C@H](NC(=O)[C@@H](N)CCCNC(=N)N)C(=O)N[C@@H](CC(N)=O)C(=O)N[C@@H](CC(N)=O)C(=O)N[C@H](C(=O)N1C[C@@H](n2cc(-c3ccccc3C)nn2)C[C@H]1C(=O)N[C@@H](Cc1c[nH]c2ccccc12)C(=O)N[C@@H](CO)C(=O)N[C@@H](CCC(=O)O)C(=O)N[C@@H](C)C(=O)N[C@@H](CCSC)C(=O)N[C@@H](CCSC)C(=O)O)[C@@H](C)CC ... 6.89
2) CC[C@H](C)[C@H](NC(=O)[C@@H](N)CCCNC(=N)N)C(=O)N[C@@H](CC(N)=O)C(=O)N[C@@H](CC(N)=O)C(=O)N[C@H](C(=O)N1CCC[C@H]1C(=O)N[C@@H](Cc1c[nH]c2ccccc12)C(=O)N[C@@H](CO)C(=O)N[C@@H](CCC(=O)O)C(=O)N[C@@H](C)C(=O)N[C@@H](CCSC)C(=O)N[C@@H](CCSC)C(=O)O)[C@@H](C)CC ... 5.30
3) CC[C@H](C)[C@H](NC(=O)[C@@H](N)CCCNC(=N)N)C(=O)N[C@@H](CC(N)=O)C(=O)N[C@@H](CC(N)=O)C(=O)N[C@H](C(=O)N1C[C@@H](n2cc(-c3ccc(C)cc3)nn2)C[C@H]1C(=O)N[C@@H](Cc1c[nH]c2ccccc12)C(=O)N[C@@H](CO)C(=O)N[C@@H](CCC(=O)O)C(=O)N[C@@H](C)C(=O)N[C@@H](CCSC)C(=O)N[C@@H](CCSC)C(=O)O)[C@@H](C)CC ... 7.92
4) CC[C@H](C)[C@H](NC(=O)[C@@H](N)CCCNC(=N)N)C(=O)N[C@@H](CC(N)=O)C(=O)N[C@@H](CC(N)=O)C(=O)N[C@H](C(=O)N1C[C@@H](n2cc(-c3ccccc3N)nn2)C[C@H]1C(=O)N[C@@H](Cc1c[nH]c2ccccc12)C(=O)N[C@@H](CO)C(=O)N[C@@H](CCC(=O)O)C(=O)N[C@@H](C)C(=O)N[C@@H](CCSC)C(=O)N[C@@H](CCSC)C(=O)O)[C@@H](C)CC ... 4.60

Please find the next compound below.
In: Item CC[C@H](C)[C@H](NC(=O)[C@@H](N)CCCNC(=N)N)C(=O)N[C@@H](CC(N)=O)C(=O)N[C@@H](CC(N)=O)C(=O)N[C@H](C(=O)N1C[C@@H](n2cc(-c3ccc(F)c(C)c3)nn2)C[C@H]1C(=O)N[C@@H](Cc1c[nH]c2ccccc12)C(=O)N[C@@H](CO)C(=O)N[C@@H](CCC(=O)O)C(=O)N[C@@H](C)C(=O)N[C@@H](CCSC)C(=O)N[C@@H](CCSC)C(=O)O)[C@@H](C)CC : provide pKd
Out: 7.42

----------
Experiment: Binding affinity to immobilized HIV1 YU2 gp120 by surface plasmon resonance method
Set-up: species or system Human immunodeficiency virus 1
metric: pKd
Give only the number. pKd is defined as minus log10 of concentration in molar units.

1. CC[C@H](C)[C@H](NC(=O)[C@@H](N)CCCNC(=N)N)C(=O)N[C@@H](CC(N)=O)C(=O)N[C@@H](CC(N)=O)C(=O)N[C@H](C(=O)N1C[C@@H](n2cc(CSc3ccccc3)nn2)C[C@H]1C(=O)N[C@@H](Cc1c[nH]c2ccccc12)C(=O)N[C@@H](CO)C(=O)N[C@@H](CCC(=O)O)C(=O)N[C@@H](C)C(=O)N[C@@H](CCSC)C(=O)N[C@@H](CCSC)C(=O)O)[C@@H](C)CC ... 6.94

In: Item CC[C@H](C)[C@H](NC(=O)[C@@H](N)CCCNC(=N)N)C(=O)N[C@@H](CC(N)=O)C(=O)N[C@@H](CC(N)=O)C(=O)N[C@H](C(=O)N1C[C@@H](n2cc(-c3ccccc3OC)nn2)C[C@H]1C(=O)N[C@@H](Cc1c[nH]c2ccccc12)C(=O)N[C@@H](CO)C(=O)N[C@@H](CCC(=O)O)C(=O)N[C@@H](C)C(=O)N[C@@H](CCSC)C(=O)N[C@@H](CCSC)C(=O)O)[C@@H](C)CC : provide pKd
Out: 4.85

In: Item CC[C@H](C)[C@H](NC(=O)[C@@H](N)CCCNC(=N)N)C(=O)N[C@@H](CC(N)=O)C(=O)N[C@@H](CC(N)=O)C(=O)N[C@H](C(=O)N1C[C@@H](n2cc(Cn3nnc4ccccc43)nn2)C[C@H]1C(=O)N[C@@H](Cc1c[nH]c2ccccc12)C(=O)N[C@@H](CO)C(=O)N[C@@H](CCC(=O)O)C(=O)N[C@@H](C)C(=O)N[C@@H](CCSC)C(=O)N[C@@H](CCSC)C(=O)O)[C@@H](C)CC : provide pKd
Out: 6.41

In: Item CC[C@H](C)[C@H](NC(=O)[C@@H](N)CCCNC(=N)N)C(=O)N[C@@H](CC(N)=O)C(=O)N[C@@H](CC(N)=O)C(=O)N[C@H](C(=O)N1C[C@@H](n2cc(-c3cccc(C)c3)nn2)C[C@H]1C(=O)N[C@@H](Cc1c[nH]c2ccccc12)C(=O)N[C@@H](CO)C(=O)N[C@@H](CCC(=O)O)C(=O)N[C@@H](C)C(=O)N[C@@H](CCSC)C(=O)N[C@@H](CCSC)C(=O)O)[C@@H](C)CC : provide pKd
Out: 7.08

In: Item CC[C@H](C)[C@H](NC(=O)[C@@H](N)CCCNC(=N)N)C(=O)N[C@@H](CC(N)=O)C(=O)N[C@@H](CC(N)=O)C(=O)N[C@H](C(=O)N1C[C@@H](n2cc(-c3cc(C)ccc3C)nn2)C[C@H]1C(=O)N[C@@H](Cc1c[nH]c2ccccc12)C(=O)N[C@@H](CO)C(=O)N[C@@H](CCC(=O)O)C(=O)N[C@@H](C)C(=O)N[C@@H](CCSC)C(=O)N[C@@H](CCSC)C(=O)O)[C@@H](C)CC : provide pKd
Out: 6.13
